Test: Blood metabolism study in rats (HPLC of blood samples)
Type: in vivo, male Sprague-Dawley rats
Conditions: male, Sprague-Dawley, blood; rat, intravenous infusion 5 mg/kg for 3 minutes, average, sampling to 48 hours

molecule	AUC(0-t), ng·h/mL
CC(=O)O[C@H]1C(=O)[C@@]2(C)[C@H]([C@H](OC(=O)c3ccccc3)[C@]3(O)C[C@H](OC(=O)[C@H](O)[C@@H](NC(=O)c4ccccc4)c4ccccc4)C(C)=C1C3(C)C)[C@]1(OC(C)=O)CO[C@@H]1C[C@@H]2O [Taxol (free), Taxol]	1970

###

Assay: Blood metabolism study in rats (HPLC of blood samples)
Type: in vivo, male Sprague-Dawley rats
Details: male, Sprague-Dawley, blood; rat, intravenous infusion 5 mg/kg for 3 minutes, average; read-out: C0

compound	C0 / ng/mL
CC(=O)O[C@H]1C(=O)[C@@]2(C)[C@H]([C@H](OC(=O)c3ccccc3)[C@]3(O)C[C@H](OC(=O)[C@H](O)[C@@H](NC(=O)c4ccccc4)c4ccccc4)C(C)=C1C3(C)C)[C@]1(OC(C)=O)CO[C@@H]1C[C@@H]2O [Taxol (free), Taxol]	2700

All figures here come from patent US20070292384A1.
